Some compounds, each annotated with its measured Retention_time.
SUBJECT OF TEST: Putative nitroreductase (Staphylococcus saprophyticus subsp. saprophyticus (strain ATCC 15305 / DSM20229 / NCIMB 8711 / NCTC 7292 / S-41))
ASSAY OVERVIEW: Substrate activity at Staphylococcus saprophyticus nitroreductase expressed in Escherichia coli assessed as retention time in the presence of NADPH at 100 uM by HPLC analysis (0 to 5 mins at 20% ACN, 25 to 35 min at 80% ACN, 40 to 45 min at 20% ACN)
Assay type: ADME

| COMPOUND | MEASURE UNIT | Retention_time |
| --- | --- | --- |
| O=C(Nc1ccccc1NC(=O)c1ccc([N+](=O)[O-])cc1)c1ccc([N+](=O)[O-])cc1 | min | 22.08 |
| O=C(NC1CCC(NC(=O)c2ccc([N+](=O)[O-])cc2)CC1)c1ccc([N+](=O)[O-])cc1 (configuration not stated) | min | 19.2 |
| O=C(c1ccc([N+](=O)[O-])cc1)N1CCN(C(=O)c2ccc([N+](=O)[O-])cc2)CC1 | min | 17.6 |
| O=C(c1ccc([N+](=O)[O-])cc1)N1CCCCC1 | min | 17.81 |
| O=C(NC1CCCCC1NC(=O)c1ccc([N+](=O)[O-])cc1)c1ccc([N+](=O)[O-])cc1 (configuration not stated) | min | 20.85 |
| O=C(Nc1cccc(NC(=O)c2ccc([N+](=O)[O-])cc2)c1)c1ccc([N+](=O)[O-])cc1 | min | 21.98 |
| O=C(NCCNC(=O)c1ccc([N+](=O)[O-])cc1)c1ccc([N+](=O)[O-])cc1 | min | 17.86 |

---

SUBJECT OF TEST: Putative nitroreductase (Staphylococcus saprophyticus subsp. saprophyticus (strain ATCC 15305 / DSM20229 / NCIMB 8711 / NCTC 7292 / S-41), UniProt Q4A0P1)
Sequence (Q4A0P1 whole entry): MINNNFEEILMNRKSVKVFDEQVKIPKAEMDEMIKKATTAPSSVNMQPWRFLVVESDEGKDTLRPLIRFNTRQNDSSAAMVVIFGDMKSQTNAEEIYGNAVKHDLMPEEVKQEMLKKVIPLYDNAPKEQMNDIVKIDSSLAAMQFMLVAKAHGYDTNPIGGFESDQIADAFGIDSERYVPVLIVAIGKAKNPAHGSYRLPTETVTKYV
ASSAY OVERVIEW: Substrate activity at Staphylococcus saprophyticus nitroreductase expressed in Escherichia coli assessed as retention time […] at 100 uM by HPLC analysis (0 to 5 mins at 20 % ACN, 15 to 22 min at 80% ACN, 27-32 AT 20% ACN)
Type: ADME
REPORTED ENDPOINT: Retention time

| COMPOUND | ASSAY VALUE |
| --- | --- |
| O=C(NC1CCCC(NC(=O)c2ccc([N+](=O)[O-])cc2)C1)c1ccc([N+](=O)[O-])cc1 (stereo unspecified) | 19.4 to 20.6 min |

---

SUBJECT OF TEST: Staphylococcus saprophyticus nitroreductase (Staphylococcus saprophyticus subsp. saprophyticus (strain ATCC 15305 / DSM20229 / NCIMB 8711 / NCTC 7292 / S-41), UniProt Q4A0P1)
ASSAY OVERVIEW: Substrate activity at Staphylococcus saprophyticus nitroreductase expressed in Escherichia coli assessed as half life in the presence of NADPH at 111 uM by HPLC analysis (0 to 5 mins at 20% ACN, 25 to 35 min at 80% ACN, 40 to 45 min at 20% ACN)
Assay type: ADME
Attribute: half-life

| SMILES INPUT | half-life |
| --- | --- |
| CCCCN(CCCC)c1c([N+](=O)[O-])cc(C(=O)Nc2ccc(Cl)cc2)cc1[N+](=O)[O-] | < 2.4 h |
| CCCCN(CCCC)c1c([N+](=O)[O-])cc(C(=O)Nc2ccc([N+](=O)[O-])cc2)cc1[N+](=O)[O-] | < 1.56 h |
| CN(C)c1c([N+](=O)[O-])cc(C(=O)Nc2ccc(Cl)cc2)cc1[N+](=O)[O-] | < 3.15 h |
